Give phosphorylation enrichment for every item shown.
Target: MERTK (UniProt Q12866)
Sequence (Q12866 whole entry, looked up): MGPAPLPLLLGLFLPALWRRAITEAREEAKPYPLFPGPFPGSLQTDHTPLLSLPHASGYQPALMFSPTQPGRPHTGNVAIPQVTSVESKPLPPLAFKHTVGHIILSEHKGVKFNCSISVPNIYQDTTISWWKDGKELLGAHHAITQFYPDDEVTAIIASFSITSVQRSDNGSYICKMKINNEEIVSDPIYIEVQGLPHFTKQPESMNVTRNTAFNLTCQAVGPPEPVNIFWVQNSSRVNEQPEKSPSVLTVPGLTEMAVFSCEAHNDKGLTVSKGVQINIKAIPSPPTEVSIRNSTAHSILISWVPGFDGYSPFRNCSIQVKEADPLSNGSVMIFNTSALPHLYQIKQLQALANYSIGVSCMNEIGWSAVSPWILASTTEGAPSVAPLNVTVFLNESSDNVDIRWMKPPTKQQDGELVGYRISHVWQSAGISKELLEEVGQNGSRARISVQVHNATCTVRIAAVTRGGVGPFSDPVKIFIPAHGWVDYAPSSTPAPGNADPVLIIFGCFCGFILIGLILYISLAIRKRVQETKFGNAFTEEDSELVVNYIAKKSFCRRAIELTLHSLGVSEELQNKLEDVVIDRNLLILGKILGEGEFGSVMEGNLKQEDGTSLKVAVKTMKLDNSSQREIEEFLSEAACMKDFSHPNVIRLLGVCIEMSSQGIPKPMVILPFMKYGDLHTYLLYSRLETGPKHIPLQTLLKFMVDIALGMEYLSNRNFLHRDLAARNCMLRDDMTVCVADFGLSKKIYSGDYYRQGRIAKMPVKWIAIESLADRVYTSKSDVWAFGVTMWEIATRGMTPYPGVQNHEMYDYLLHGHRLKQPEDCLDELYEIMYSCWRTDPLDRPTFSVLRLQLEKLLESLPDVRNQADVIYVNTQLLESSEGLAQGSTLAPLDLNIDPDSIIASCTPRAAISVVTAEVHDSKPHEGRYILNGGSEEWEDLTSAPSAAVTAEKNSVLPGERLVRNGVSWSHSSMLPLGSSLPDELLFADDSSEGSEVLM
Assay: phosphorylation enrichment, bacterial display (enrichment ratio); higher = better substrate or ligand; peptides without Tyr show the background;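 also: 11-residue human phosphosite peptides and single-mutation variants displayed on the E. coli surface, counted by deep sequencing, each peptide's frequency after selection divided by its frequency in the unselected input library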;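 also: frequency after pTyr selection over input frequency; kinase dosed for 20-30% of maximal phosphorylation in three min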
Number only, no unit.

Tested system MERTK (UniProt Q12866); phosphorylation enrichment recorded for GKTQQYECKWF [BCR_Y751_D752E_YF] was 0.467

Tested system MERTK (UniProt Q12866); phosphorylation enrichment recorded for RVLHNYLVWRV [ECEL1_Y400] was 0.79

Tested system MERTK (UniProt Q12866); phosphorylation enrichment recorded for SFSGEYGSGGG [ZG16_Y30_G32S_YF] was 0.327

Tested system MERTK (UniProt Q12866); phosphorylation enrichment recorded for LAGRYYALKSM [CKB_Y174] was 3.22

Tested system MERTK (UniProt Q12866); phosphorylation enrichment recorded for DTDSSYCIPTA [GAB1_Y373] was 1.01

Tested system MERTK (UniProt Q12866); phosphorylation enrichment recorded for IHETTHNSIMK [ACTA1_Y281_Y281H] was 0.38

Tested system MERTK (UniProt Q12866); phosphorylation enrichment recorded for CCNHPYRINGA [CHD7_Y1256_L1257R] was 0.404

Tested system MERTK (UniProt Q12866); phosphorylation enrichment recorded for HEVHIYENSGA [ARPC1B_Y35_K37N] was 0.826

Tested system MERTK (UniProt Q12866); phosphorylation enrichment recorded for QRVLLYVRRET [GRHL3_Y518] was 0.801

Tested system MERTK (UniProt Q12866); phosphorylation enrichment recorded for RLRAAYNLVKR [PFKM_Y103] was 0.559

Tested system MERTK (UniProt Q12866); phosphorylation enrichment recorded for IKKLIYVHLVI [JAGN1_Y42] was 0.569

Tested system MERTK (UniProt Q12866); phosphorylation enrichment recorded for SNKELYEKYMI was 0.597

Tested system MERTK (UniProt Q12866); phosphorylation enrichment recorded for QLAPQYTYAQG [FLNA_Y1761] was 0.65

Tested system MERTK (UniProt Q12866); phosphorylation enrichment recorded for SVTCTYSPAVN [TP53_Y126_L130V] was 0.508

Tested system MERTK (UniProt Q12866); phosphorylation enrichment recorded for LLKAGYHGVLR [TTPA_Y100] was 0.631

Tested system MERTK (UniProt Q12866); phosphorylation enrichment recorded for FADIAYNYRHG [PAH_Y166] was 0.404

Tested system MERTK (UniProt Q12866); phosphorylation enrichment recorded for LTTEVYFPSIK [C5orf64_Y60_A57T] was 0.562

Tested system MERTK (UniProt Q12866); phosphorylation enrichment recorded for FTNRNYDLDYD [MYC_Y12] was 0.58

Tested system MERTK (UniProt Q12866); phosphorylation enrichment recorded for HNGVSYYINLC [IGF2R_Y2024] was 0.513

Tested system MERTK (UniProt Q12866); phosphorylation enrichment recorded for MKALGYFAVGT [OPA1_Y498_V502G] was 0.355

###

Biological target: EPHB2 (UniProt P29323)
Sequence (P29323 whole entry, looked up): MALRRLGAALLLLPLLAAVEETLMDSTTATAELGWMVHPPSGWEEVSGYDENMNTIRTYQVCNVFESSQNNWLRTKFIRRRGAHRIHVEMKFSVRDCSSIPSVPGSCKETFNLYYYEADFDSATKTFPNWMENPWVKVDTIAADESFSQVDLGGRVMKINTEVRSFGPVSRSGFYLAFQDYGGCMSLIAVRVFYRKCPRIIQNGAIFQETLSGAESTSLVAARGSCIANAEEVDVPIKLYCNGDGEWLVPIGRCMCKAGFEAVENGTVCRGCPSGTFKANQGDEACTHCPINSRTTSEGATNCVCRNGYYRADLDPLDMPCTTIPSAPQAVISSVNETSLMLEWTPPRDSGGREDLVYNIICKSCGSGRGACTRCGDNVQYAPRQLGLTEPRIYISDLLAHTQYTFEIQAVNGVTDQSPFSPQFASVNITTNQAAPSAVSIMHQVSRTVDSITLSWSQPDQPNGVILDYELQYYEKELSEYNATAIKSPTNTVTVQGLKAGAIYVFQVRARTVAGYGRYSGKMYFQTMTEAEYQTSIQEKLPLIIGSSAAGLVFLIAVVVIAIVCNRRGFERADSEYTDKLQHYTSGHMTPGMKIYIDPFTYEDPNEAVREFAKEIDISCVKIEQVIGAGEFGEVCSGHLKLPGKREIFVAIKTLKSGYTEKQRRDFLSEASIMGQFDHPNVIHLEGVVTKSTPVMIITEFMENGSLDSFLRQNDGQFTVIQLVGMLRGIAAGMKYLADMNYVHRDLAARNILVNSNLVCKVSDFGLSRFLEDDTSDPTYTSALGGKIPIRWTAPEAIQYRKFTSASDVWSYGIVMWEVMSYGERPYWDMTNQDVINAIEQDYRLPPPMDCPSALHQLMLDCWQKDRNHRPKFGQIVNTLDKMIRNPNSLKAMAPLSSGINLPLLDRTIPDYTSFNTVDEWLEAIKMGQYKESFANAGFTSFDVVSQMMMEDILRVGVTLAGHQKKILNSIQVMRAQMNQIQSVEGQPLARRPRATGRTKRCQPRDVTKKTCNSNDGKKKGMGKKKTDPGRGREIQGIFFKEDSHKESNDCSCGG
Assay: phosphorylation enrichment, bacterial display (enrichment ratio); higher = better substrate or ligand; peptides without Tyr show the background
The label depends only on phosphorylation enrichment: yes (1) if it is at least 0.6, no (0) if it is smaller.

Query string: Entry FFTEEYVRAHP [DOCK2_Y1555_D1558A] : is its phosphorylation enrichment no less than 0.6?
Result string: yes (1)

Query string: Entry KGYRGYSYDDI [TMEM230_Y110] : is its phosphorylation enrichment no less than 0.6?
Result string: no (0)

Query string: Entry MLNTNYHLPPS [MT-ATP8_Y33] : is its phosphorylation enrichment no less than 0.6?
Result string: no (0)

Query string: Entry KDFNKYVAFIE [KDM4B_Y31_YF] : is its phosphorylation enrichment no less than 0.6?
Result string: no (0)

Query string: Entry EGDGVYTLNNE [HP_Y125] : is its phosphorylation enrichment no less than 0.6?
Result string: yes (1)

Query string: Entry STDDGCIDLQF [TMEM230_Y29_Y29C] : is its phosphorylation enrichment no less than 0.6?
Result string: yes (1)

Query string: Entry CTTIHYSFMCN [TP53_Y234_N235S_YF] : is its phosphorylation enrichment no less than 0.6?
Result string: no (0)

Query string: Entry VNYQPYRKHKY [TEX37_Y28_D24N] : is its phosphorylation enrichment no less than 0.6?
Result string: no (0)

Query string: Entry NHFKIYNLCAE [PTEN_Y68_YF] : is its phosphorylation enrichment no less than 0.6?
Result string: no (0)

Query string: Entry EEGESDVCSSD [DCX_Y125_Y125D] : is its phosphorylation enrichment no less than 0.6?
Result string: no (0)

Query string: Entry DDHFTYSRYPW [LY75_Y888] : is its phosphorylation enrichment no less than 0.6?
Result string: yes (1)

Query string: Entry TYGVLYKARNK [CDK2_Y19_V18L] : is its phosphorylation enrichment no less than 0.6?
Result string: no (0)

Query string: Entry RLLRGYDQLAF [HLA-C_Y137_S140L_YF] : is its phosphorylation enrichment no less than 0.6?
Result string: no (0)

Query string: Entry IRQGHYESLKE [MTR_Y921_D919G] : is its phosphorylation enrichment no less than 0.6?
Result string: no (0)

Query string: Entry SLTRLYVGENA [NLRP3_Y861] : is its phosphorylation enrichment no less than 0.6?
Result string: no (0)

Query string: Entry PPNSPYIGSSP [KCNT1_Y740] : is its phosphorylation enrichment no less than 0.6?
Result string: no (0)

Query string: Entry PPNSPYMGSSP [KCNT1_Y740_I741M] : is its phosphorylation enrichment no less than 0.6?
Result string: no (0)

Query string: Entry IKNSGYISRFL [EIF2AK3_Y585_YF] : is its phosphorylation enrichment no less than 0.6?
Result string: no (0)

Query string: Entry RLGDLYKEEMR [VIM_Y150_E151K] : is its phosphorylation enrichment no less than 0.6?
Result string: yes (1)

Query string: Entry LKGQVDILGRE [ASS1_Y359_Y359D] : is its phosphorylation enrichment no less than 0.6?
Result string: yes (1)

Query string: Entry ENKGVYVLMSG [IVD_Y277] : is its phosphorylation enrichment no less than 0.6?
Result string: yes (1)

Query string: Entry LKTNCYNNGKD [DNMT3B_Y404] : is its phosphorylation enrichment no less than 0.6?
Result string: yes (1)

Query string: Entry EEGEEYGGGGG [TUBA1A_Y451] : is its phosphorylation enrichment no less than 0.6?
Result string: yes (1)

Query string: Entry ARIVDYNIIGW [MYH7_Y588_G584R] : is its phosphorylation enrichment no less than 0.6?
Result string: yes (1)

Query string: Entry SKKVRYVVSKA [BARD1_Y156] : is its phosphorylation enrichment no less than 0.6?
Result string: no (0)

Query string: Entry IHRWVYPLTPE [EIF2B5_Y319_R315H] : is its phosphorylation enrichment no less than 0.6?
Result string: no (0)

Query string: Entry KQNSLYSFSDH [CCDC82_Y331] : is its phosphorylation enrichment no less than 0.6?
Result string: yes (1)

Query string: Entry PFTRNYFVQAV [CYBA_Y87_R90Q_YF] : is its phosphorylation enrichment no less than 0.6?
Result string: yes (1)

Query string: Entry HICTAYKLVLA [DHCR24_Y190_E191K] : is its phosphorylation enrichment no less than 0.6?
Result string: yes (1)

Query string: Entry FGSLLYKFAFK [FANCD2_Y458_YF] : is its phosphorylation enrichment no less than 0.6?
Result string: no (0)

Query string: Entry IRQDDYESLKE [MTR_Y921_H920D] : is its phosphorylation enrichment no less than 0.6?
Result string: no (0)

Query string: Entry HRDSSYFWEIE [RAF1_Y340_Q335H_YF] : is its phosphorylation enrichment no less than 0.6?
Result string: yes (1)

Query string: Entry DAVAVYDGKIS [SH2D1A_Y7_H8D] : is its phosphorylation enrichment no less than 0.6?
Result string: yes (1)

Query string: Entry FAELVYTGFWH [ASS1_Y322] : is its phosphorylation enrichment no less than 0.6?
Result string: yes (1)

Query string: Entry SLDHPFEKPRK [INAVA_Y333_Y333F] : is its phosphorylation enrichment no less than 0.6?
Result string: no (0)

Query string: Entry GITVTYTIPKK [UBA5_Y372_A371T] : is its phosphorylation enrichment no less than 0.6?
Result string: no (0)

Query string: Entry RLLRGHDQFAF [HLA-B_Y137_YF] : is its phosphorylation enrichment no less than 0.6?
Result string: no (0)

Query string: Entry AVVEPYNSILT [TUBA1A_Y185] : is its phosphorylation enrichment no less than 0.6?
Result string: no (0)

Query string: Entry DGMADCSDPSF [CDC5L_Y459_Y459C_YF] : is its phosphorylation enrichment no less than 0.6?
Result string: yes (1)

Query string: Entry MFDKEYFSVHN [MET_Y1234_YF] : is its phosphorylation enrichment no less than 0.6?
Result string: no (0)

Query string: Entry TFGVAYRAKDK [CDK11B_Y453_V452A_YF] : is its phosphorylation enrichment no less than 0.6?
Result string: no (0)

Query string: Entry KRGASYILKLA [SERPINB1_Y84] : is its phosphorylation enrichment no less than 0.6?
Result string: no (0)
